test system: Saccharomyces cerevisiae; assay: protein stability index of tFT-peptide fusion in deletion strain of DAS1 (PSI (0-1 scale)); higher = more stable (slower turnover)
This section presents sequences with their documented protein stability index values.
Value Kind: protein stability index

{"columns": ["Item Sequence", "Value Kind", "Val"],
 "data": [
  ["CTSCGYNFRTNN", "protein stability index", 0.704],
  ["RLKQPLPVQFLN", "protein stability index", 0.559],
  ["DDKRNHLIKLLN", "protein stability index", 0.595],
  ["RLIQPLPVVFLN", "protein stability index", 0.565],
  ["MSMRWTFRYWVN", "protein stability index", 0.536],
  ["RLIQPLTVQFLN", "protein stability index", 0.608],
  ["LVVNLSCVACIN", "protein stability index", 0.172]
]}

----------
system: Saccharomyces cerevisiae; assay: protein stability index of tFT-peptide fusion (C-terminal peptide) (PSI (0-1 scale)); higher = more stable (slower turnover); conditions: genetic background: wild type; temperature: 30 C
Listed next: entries and their corresponding protein stability index.

{"columns": ["Item Sequence", "System", "protein stability index"],
 "data": [
  ["DPRSPLSHSFLR", "Saccharomyces cerevisiae", 0.706],
  ["LPPTPPLPRSLP", "Saccharomyces cerevisiae", 0.716],
  ["VEHVRIGGGGKS", "Saccharomyces cerevisiae", 0.7],
  ["YNRQVDFECHKF", "Saccharomyces cerevisiae", 0.698],
  ["ATVKRAVPPVFR", "Saccharomyces cerevisiae", 0.7],
  ["GGFVVVGGVVGV", "Saccharomyces cerevisiae", 0.72],
  ["GDDRGTSKCCLT", "Saccharomyces cerevisiae", 0.702],
  ["DPRPHPPFARSP", "Saccharomyces cerevisiae", 0.699],
  ["EEMEKRNREKEL", "Saccharomyces cerevisiae", 0.691],
  ["HRCNCVFPENSL", "Saccharomyces cerevisiae", 0.693],
  ["TYLSSPAPLLPL", "Saccharomyces cerevisiae", 0.694],
  ["PMLSDVPTHSIS", "Saccharomyces cerevisiae", 0.719],
  ["VPRTPPTTSWFP", "Saccharomyces cerevisiae", 0.682],
  ["STALVFSDSALL", "Saccharomyces cerevisiae", 0.694],
  ["PLRPQALDPFLY", "Saccharomyces cerevisiae", 0.684],
  ["LFLPPLFRRSPF", "Saccharomyces cerevisiae", 0.684],
  ["RRRQARGANAHS", "Saccharomyces cerevisiae", 0.7],
  ["IGVVKHGAAEKV", "Saccharomyces cerevisiae", 0.711],
  ["VIGSKQERRAEK", "Saccharomyces cerevisiae", 0.69],
  ["LRGGGKRREVMG", "Saccharomyces cerevisiae", 0.702],
  ["ASSLLPIPPPPF", "Saccharomyces cerevisiae", 0.706],
  ["VTCALGIGGVGV", "Saccharomyces cerevisiae", 0.716],
  ["QFLGVGCLRGKR", "Saccharomyces cerevisiae", 0.692],
  ["HFSPLILSSYTV", "Saccharomyces cerevisiae", 0.693],
  ["QPLTYHPLLRRP", "Saccharomyces cerevisiae", 0.715],
  ["PSYSFQYRLIQD", "Saccharomyces cerevisiae", 0.712],
  ["LSSLLPFPPLPC", "Saccharomyces cerevisiae", 0.685],
  ["LWGAIGHGNAGP", "Saccharomyces cerevisiae", 0.684],
  ["GIVGLFSALSLL", "Saccharomyces cerevisiae", 0.706],
  ["VGAAVFGARWGA", "Saccharomyces cerevisiae", 0.689]
]}
